meta.source: patent EP2508186A1

Molecular target: Aβ42 oligomers (Homo sapiens)
Construct: the amyloid-β 1-42 (Aβ42) peptide
Assay: Colorimetric dot blot binding assay on nitrocellulose membrane
Conditions: Aβ42 oligomers equivalent to monomer concentration 3 µM; 04 0.4-200 µM, 15 min; read-out: apparent dissociation constant
outcome-measure: Kd (µM)
Write down the numeric answer in µM and omit the unit.

Task: # query: Kd of entry O=c1cc2oc3cc(O)c(-c4ccc(O)cc4O)cc3nc-2cc1-c1ccc(O)cc1O
Result: 50

---

Biological target: Aβ42 oligomers (Homo sapiens, UniProt P05067)
Construct: the amyloid-β 1-42 (Aβ42) peptide
Sequence (P05067 672-713 limits assumed): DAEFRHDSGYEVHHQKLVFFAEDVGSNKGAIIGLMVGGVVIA
Experiment: Colorimetric dot blot binding assay on nitrocellulose membrane
Settings: Aβ42 oligomers equivalent to monomer concentration 12 µM; 04 0.4-200 µM, 15 min; read-out: apparent dissociation constant
outcome-measure: Kd (µM)
Write down the numeric answer in µM and omit the unit.

Task: # query: Kd of entry O=c1cc2oc3cc(O)c(-c4ccc(O)cc4O)cc3nc-2cc1-c1ccc(O)cc1O [Compound 04]
Result: 3.5

---

Biological target: Aβ42 oligomers (Homo sapiens)
Construct: the amyloid-β 1-42 (Aβ42) peptide
Assay: Colorimetric dot blot binding assay on nitrocellulose membrane
Settings: Aβ42 oligomers equivalent to monomer concentration 6 µM; 04 0.4-200 µM, 15 min; read-out: apparent dissociation constant
outcome-measure: pKd
pKd field: float, defined as -log10 of concentration (mol/L).

Task: # query: pKd of entry O=c1cc2oc3cc(O)c(-c4ccc(O)cc4O)cc3nc-2cc1-c1ccc(O)cc1O
Result: 4.60
